Listed here: items and their measured TGI.
Test system: NCI-H460 lung
experimental.details: NCI tumour cell line growth inhibition, 48 h

CCOP1(=O)CC(C)=C(Cl)C(O)C1 (centres undefined)    > 100 µM
C/C(=C\CBr)CCC(Br)C(C)(C)Cl (centres undefined)    > 100 µM
COC1C(N)C(OC2C(Oc3cccc4c(O)c5c(=O)oc6ccc(C)c7c(=O)oc(c34)c5c67)OC(C)C(O)C2(C)O)OC(C)C1O (centres undefined)    0.139 µM
CC1=NC(=Cc2ccccc2O)C(=O)N1n1c(-c2ccccc2)nc2ccccc2c1=O    > 100 µM
Cc1cc(C)nc(NS(=O)(=O)c2ccc(Nc3c4ccccc4nc4c(C(=O)Nc5ccc(S(=O)(=O)N=C(N)N)cc5)cccc34)cc2)n1    > 100 µM
N#CC1=C(/N=C/c2ccccc2)Oc2c(ccc3ccccc23)C1c1ccccc1 (centres undefined)    > 39.3 µM
Nc1[nH]c(=O)nc2c1cnn2C1CCCCO1 (centres undefined)    > 100 µM
c1ccc(-c2nc(N3CCNCC3)c3oc(-c4ccccc4)nc3n2)cc1    3.38 µM

Lab note: C/C(=C\c1cnc(C)s1)[C@@H]1C[C@@H]2O[C@@H]2CCC[C@H](C)[C@H](O)[C@@H](C)C(=O)C(C)(C)[C@@H](O)CC(=O)O1 gave TGI of > 100 µM

Noted for ClCCN(CCCl)c1ccc(/C=N/Nc2ccnc3ccccc23)cc1 : its TGI reads > 100 µM

The reported TGI of the compound C[N+](C)(C)CC1CCCC1=O (centres undefined) was 38.9 µM

Measured TGI, CCCC1CCC(=C2C(=O)CCC2=O)O1 (centres undefined) : > 100 µM

====

System: HT29 colon
experimental.details: NCI tumour cell line growth inhibition, 48 h
Where a SMILES comes first, the peptide text is derived from it. The star is where a group is joined. Palmitoyl = CCCCCCCCCCCCCCCC(=O)*
measured.endpoint: TGI

CCCCCCCCCCCCCCCC(=O)N1CCCC1C(=O)NCC(=O)NC(Cc1ccccc1)C(=O)NC(C)C(=O)NC(CO)C(=O)NC(Cc1ccc(O)cc1)C(=O)NC(CCCCN)C(=O)NC(CC(C)C)C(=O)NC(CCCN=C(N)N)C(=O)N1CCCC1C(=O)NCC(N)=O (configuration not stated) (Palmitoyl-PGFASYKLRPG-NH2; configuration not given here) on HT29 colon gives TGI = 30.5 µM

# lookup: COc1cc2c(c(O)c1OC)C(=O)[C@@H]1CCC(=O)N1C2 on HT29 colon, TGI = > 100 µM

Response field TGI (HT29 colon) for item COC(=O)[C@H]1CCCN1C(=O)[C@H]1CCCN1C(=O)[C@@H](Cc1c[nH]c2ccccc12)NC(=S)Nc1cc(C(F)(F)F)cc(C(F)(F)F)c1 : 3.65 µM

Log: HT29 colon, compound OCCN(CCO)c1ncnc2nc[nH]c12 , TGI = > 100 µM

Sample CSC(=S)Nc1cccc(C)n1 , system: HT29 colon. Its TGI is > 100 µM

# TGI measured on HT29 colon for item CC1(c2nc3ccccc3[nH]2)CCC(C(=O)O)C(C)(C)O1 (configuration not stated) = > 100 µM

The compound CC12CCC(=O)N1c1ccc([N+](=O)[O-])cc1N2 (configuration not stated) , tested on HT29 colon, showed TGI of > 100 µM
